The measurements presented in this section are drawn from the supplement of paper PMC10127200.

System: OVCAR4
EXPERIMENTAL_PROTOCOL: Euclidean distance of Cell Painting phenotypic profile (signed KS, 77 features) to DMSO centroid (dimensionless distance); 5 or 10 uM (library dependent); higher = stronger phenotypic change vs DMSO (phenoactivity)
EXPERIMENTAL_PARAMETERS: 48 h
Where a name gives a salt, the structure may show the parent alone.
Listed below: Euclidean distance values for each entry.

A selection of reference data follows.
MOLECULE	Euclidean distance
C=CC(=O)Nc1cc2c(Nc3ccc(F)c(Cl)c3)ncnc2cc1OCCCN1CCOCC1 [Canertinib (CI-1033)]	2.05
COc1cc(C(=O)NS(=O)(=O)c2ccccc2C)ccc1Cc1cn(C)c2ccc(NC(=O)OC3CCCC3)cc12 [Zafirlukast]	1.34
CNC(=O)CN(CCN(CCN(CC(=O)[O-])CC(=O)NC)CC(=O)[O-])CC(=O)[O-].O.[Gd+3] [Gadodiamide Hydrate]	0.986
NCc1ccccc1CC(=O)N[C@@H]1C(=O)N2C(C(=O)O)=C(CSc3nnnn3CC(=O)O)CS[C@H]12 [Ceforanide]	1.64
CN(C)CCc1c[nH]c2ccc(Cn3cncn3)cc12 [Rizatriptan Benzoate]	2.42

Request: Look up Euclidean distance of CN(C)C[C@@H]1CCn2cc(c3ccccc32)C2=C(C(=O)NC2=O)c2cn(c3ccccc23)CCO1 and report it.
Response: 4.42

Request: Look up Euclidean distance of CN(C)C(=O)COC(=O)Cc1ccc(OC(=O)c2ccc(NC(=N)N)cc2)cc1 [Camostat Mesilate] and report it.
Response: 1.71

Request: Look up Euclidean distance of C[C@]12CC[C@@H]3c4ccc(O)cc4CC[C@H]3[C@@H]1CC[C@@H]2O [Estradiol] and report it.
Response: 1.04

Request: Look up Euclidean distance of Nc1nc(Cl)nc2c1ncn2[C@@H]1O[C@H](CO)[C@@H](O)[C@@H]1F [Clofarabine] and report it.
Response: 3.09

Request: Look up Euclidean distance of C#Cc1cccc(Nc2ncnc3cc(OCCOC)c(OCCOC)cc23)c1 [Erlotinib HCl (OSI-744)] and report it.
Response: 2.37

Request: Look up Euclidean distance of Nc1nc(N)c2nc(-c3cccc(O)c3)cnc2n1 and report it.
Response: 1.9

Request: Look up Euclidean distance of NC(=O)c1cccnc1 [Nicotinamide (Vitamin B3)] and report it.
Response: 1.28

Request: Look up Euclidean distance of OC(CCN1CCCC1)(c1ccccc1)C1CCCCC1 (configuration not stated) [Procyclidine HCl] and report it.
Response: 0.869

Request: Look up Euclidean distance of CCCC(=O)Nc1ccc(OCC(O)CNC(C)C)c(C(C)=O)c1 (configuration not stated) [Acebutolol HCl] and report it.
Response: 1.34

Request: Look up Euclidean distance of COC(=O)C1=CO[C@@H](O[C@@H]2O[C@H](CO)[C@@H](O)[C@H](O)[C@H]2O)[C@@H]2[C@@H](C)[C@@H](O)C[C@H]12 [Loganin] and report it.
Response: 0.971

Request: Look up Euclidean distance of COc1cc2c(Nc3ccc(NC(=O)c4ccccc4)cc3)ncnc2cc1OCCCN1CCOCC1 and report it.
Response: 3.02

Request: Look up Euclidean distance of CO/N=C(\C(=O)N[C@@H]1C(=O)N2C(C(=O)O)=C(COC(C)=O)CS[C@H]12)c1csc(N)n1 [Cefotaxime sodium] and report it.
Response: 0.706

Request: Look up Euclidean distance of COc1cc2ncnc(Nc3ccc(F)c(Cl)c3)c2cc1OCCCN1CCOCC1 [Gefitinib (ZD1839)] and report it.
Response: 1.64

Request: Look up Euclidean distance of Cc1nc2cccc(N)c2c(=O)n1C1CCC(=O)NC1=O (configuration not stated) [Avadomide(CC-122)] and report it.
Response: 0.966

Request: Look up Euclidean distance of Cn1c(=O)c2c(ncn2CC(O)CO)n(C)c1=O (configuration not stated) [Dyphylline] and report it.
Response: 1.59

Request: Look up Euclidean distance of CC(C[N+](C)(C)C)OC(N)=O (configuration not stated) [Bethanechol chloride] and report it.
Response: 0.949

Request: Look up Euclidean distance of NC(=O)/C(=C/n1cnc(-c2cc(C(F)(F)F)cc(C(F)(F)F)c2)n1)c1cncnc1 [Eltanexor (KPT-8602)] and report it.
Response: 3.66

* * *

Tested on: FB
EXPERIMENTAL_PROTOCOL: Euclidean distance of Cell Painting phenotypic profile (signed KS, 77 features) to DMSO centroid (dimensionless distance); 5 or 10 uM (library dependent); higher = stronger phenotypic change vs DMSO (phenoactivity)
EXPERIMENTAL_PARAMETERS: 48 h
Structures can show the parent of a compound that is named as a salt.
Listed below: Euclidean distance values for each entry.
The answer should be written as a number, with no unit following it.

A selection of reference data follows.
COMPOUND	Euclidean distance
CC(C)NC(=N)NC(=N)Nc1ccc(Cl)cc1 [Proguanil]	0.927
O=C(c1ccc(C(=O)N2CCC(N3CCCC3)CC2)c(Nc2ccccc2)c1)N1CCC(N2CCCC2)CC1	0.904
CCC[C@@H]1C[C@@H](C(=O)N[C@@H]([C@H]2O[C@H](SC)[C@H](O)[C@@H](O)[C@H]2O)[C@@H](C)O)N(C)C1 [Lincomycin HCl]	1.01

Request: Look up and report measured Euclidean distance (FB) for the following compound: CCOc1nc2cccc(C(=O)O)c2n1Cc1ccc(-c2ccccc2-c2nnn[nH]2)cc1 [Candesartan]
Response: 3.34

* * *

Test system: A549
EXPERIMENTAL_PROTOCOL: Euclidean distance of Cell Painting phenotypic profile (signed KS, 77 features) to DMSO centroid (dimensionless distance); 5 or 10 uM (library dependent); higher = stronger phenotypic change vs DMSO (phenoactivity)
EXPERIMENTAL_PARAMETERS: 48 h
Where a name gives a salt, the structure may show the parent alone.
Give YES when the value for Euclidean distance is at least 3. Give NO when it is less.

COMPOUND	LABEL
CCC(=O)OCC(=O)[C@@]1(OC(=O)CC)[C@@H](C)C[C@H]2[C@@H]3CCC4=CC(=O)C=C[C@]4(C)[C@@]3(F)[C@@H](O)C[C@@]21C [Betamethasone Dipropionate]	NO
Cc1cc(O)c(C(=O)N[C@@H](C(=O)N[C@@H]2C(=O)N3C(C(=O)O)=C(CSc4nnnn4C)CS[C@H]23)c2ccc(O)cc2)cn1 [Cefpiramide sodium]	NO
CCOC(=O)[C@@H](N)Cc1ccc(-c2cc(O[C@H](c3ccc(Cl)cc3-n3ccc(C)n3)C(F)(F)F)nc(N)n2)cc1 [Telotristat Etiprate (LX 1606 Hippurate)]	NO
CCC1=C[C@@H]2CN(C1)Cc1c([nH]c3ccccc13)[C@@](C(=O)OC)(c1cc3c(cc1OC)N(C)[C@H]1[C@@](O)(C(=O)OC)[C@H](OC(C)=O)[C@]4(CC)C=CCN5CC[C@]31[C@@H]54)C2 [Vinorelbine Tartrate]	YES
CC1(C)CC(Oc2ccc(-c3ccc(-c4cn[nH]c4)cc3O)nn2)CC(C)(C)N1 [Branaplam (LMI070)]	NO

API: the following record is the query input.
Request: Test whether the compound CN(C)c1ccc(-c2nc3ncc(Cl)c(N4CCN(CC(=O)Nc5nccs5)CC4)c3[nH]2)cc1 records Euclidean distance of 3 or higher.
Response: NO

* * *

System: OVCAR4
EXPERIMENTAL_PROTOCOL: Euclidean distance of Cell Painting phenotypic profile (signed KS, 77 features) to DMSO centroid (dimensionless distance); 5 or 10 uM (library dependent); higher = stronger phenotypic change vs DMSO (phenoactivity)
EXPERIMENTAL_PARAMETERS: 48 h
Where a name gives a salt, the structure may show the parent alone.
Listed below: Euclidean distance values for each entry.

A selection of reference data follows.
COMPOUND	Euclidean distance
CC(COc1ccccc1)NC(C)C(O)c1ccc(O)cc1 (stereo not given) [Isoxsuprine hydrochloride]	1.1
C[C@H](CCC(=O)O)[C@H]1CC[C@H]2[C@@H]3C[C@H](O)[C@@H]4C[C@H](O)CC[C@]4(C)[C@H]3CC[C@]12C	1.37
CC(=O)S[C@@H]1CC2=CC(=O)CC[C@]2(C)[C@H]2CC[C@@]3(C)[C@@H](CC[C@@]34CCC(=O)O4)[C@H]12	0.776

Request: Look up Euclidean distance of C=CC1=C(C(=O)O)N2C(=O)[C@@H](NC(=O)/C(=N\OCC(=O)O)c3csc(N)n3)[C@H]2SC1 and report it.
Response: 1.73

Request: Look up Euclidean distance of C[C@@H]1NC(=O)[C@@H](N)CNC(=O)[C@H](C2CCNC(=N)N2)NC(=O)/C(=C/NC(N)=O)NC(=O)[C@H](CNC(=O)CC(N)CCCN)NC1=O.N=C1NCC[C@H]([C@@H]2NC(=O)/C(=C/NC(N)=O)NC(=O)[C@H](CNC(=O)C[C@@H](N)CCCN)NC(=O)[C@H](CO)NC(=O)[C@@H](N)CNC2=O)N1 [Capreomycin Sulfate] and report it.
Response: 1.14
